- TARGET_OR_SYSTEM: α4β1 integrin (Homo sapiens, UniProt P05556+P13612)
- Construct: screened against live Jurkat cells (α4β1 integrin-positive); endogenous in cells; host or cells: Jurkat T-leukemia cells
- Sequence (P13612 34-1032): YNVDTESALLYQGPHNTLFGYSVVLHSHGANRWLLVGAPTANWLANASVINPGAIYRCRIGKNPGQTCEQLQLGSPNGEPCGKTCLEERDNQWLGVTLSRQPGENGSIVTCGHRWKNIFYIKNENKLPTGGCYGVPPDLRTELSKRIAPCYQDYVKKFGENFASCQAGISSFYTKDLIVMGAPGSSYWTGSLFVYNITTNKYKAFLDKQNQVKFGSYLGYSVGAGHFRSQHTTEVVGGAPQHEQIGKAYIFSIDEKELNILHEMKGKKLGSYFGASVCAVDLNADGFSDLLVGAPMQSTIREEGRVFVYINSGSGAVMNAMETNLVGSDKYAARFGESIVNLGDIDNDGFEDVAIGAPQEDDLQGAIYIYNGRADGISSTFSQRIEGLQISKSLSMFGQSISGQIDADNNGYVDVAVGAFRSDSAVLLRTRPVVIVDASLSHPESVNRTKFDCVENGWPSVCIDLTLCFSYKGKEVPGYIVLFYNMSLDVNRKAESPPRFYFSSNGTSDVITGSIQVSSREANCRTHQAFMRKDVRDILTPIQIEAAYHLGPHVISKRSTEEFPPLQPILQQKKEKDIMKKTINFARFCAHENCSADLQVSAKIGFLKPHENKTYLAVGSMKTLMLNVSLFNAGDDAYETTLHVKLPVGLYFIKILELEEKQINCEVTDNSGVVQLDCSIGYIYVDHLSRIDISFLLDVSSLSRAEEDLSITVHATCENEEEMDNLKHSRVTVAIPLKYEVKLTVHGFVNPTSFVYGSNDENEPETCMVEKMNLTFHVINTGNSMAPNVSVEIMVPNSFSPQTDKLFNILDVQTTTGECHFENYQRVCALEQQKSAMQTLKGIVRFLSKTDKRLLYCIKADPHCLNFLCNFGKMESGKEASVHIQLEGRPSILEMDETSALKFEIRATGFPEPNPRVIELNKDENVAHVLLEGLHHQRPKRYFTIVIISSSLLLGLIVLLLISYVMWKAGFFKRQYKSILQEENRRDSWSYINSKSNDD
- Sequence (P05556 21-798): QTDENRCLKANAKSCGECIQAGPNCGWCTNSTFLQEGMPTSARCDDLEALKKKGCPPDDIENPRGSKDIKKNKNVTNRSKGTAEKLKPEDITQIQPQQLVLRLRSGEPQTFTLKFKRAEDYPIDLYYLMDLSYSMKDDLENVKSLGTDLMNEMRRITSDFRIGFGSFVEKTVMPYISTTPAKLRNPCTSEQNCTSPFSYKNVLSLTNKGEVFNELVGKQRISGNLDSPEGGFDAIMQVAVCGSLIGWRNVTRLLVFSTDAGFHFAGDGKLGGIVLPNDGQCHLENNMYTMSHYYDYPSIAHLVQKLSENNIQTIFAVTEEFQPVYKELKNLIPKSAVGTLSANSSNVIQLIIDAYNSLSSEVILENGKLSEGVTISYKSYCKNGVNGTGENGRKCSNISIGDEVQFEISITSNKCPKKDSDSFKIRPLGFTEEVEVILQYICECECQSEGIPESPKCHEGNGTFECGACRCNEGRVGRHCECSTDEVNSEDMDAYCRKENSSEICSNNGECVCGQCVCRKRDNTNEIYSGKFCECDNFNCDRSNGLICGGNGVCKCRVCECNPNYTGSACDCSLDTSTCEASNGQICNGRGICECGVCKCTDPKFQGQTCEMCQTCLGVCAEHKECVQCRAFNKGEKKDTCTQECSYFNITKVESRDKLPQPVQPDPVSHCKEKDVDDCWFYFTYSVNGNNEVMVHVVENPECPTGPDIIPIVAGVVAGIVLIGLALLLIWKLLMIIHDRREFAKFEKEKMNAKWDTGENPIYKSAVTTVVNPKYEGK
- RUN_DESCRIPTION: Cell-based α4β1-mediated adhesion assay: inhibition of Jurkat cell adhesion to immobilized CS-1 peptide (IC50)
- PROTOCOL_CONDITIONS: Jurkat cell adhesion to CS-1 peptide; re-synthesized ligands of Tables 18 and 19; read-out: IC50
Documented IC50 across a set of molecules
METRIC_NAME: IC50 (nM)

| MOLECULE | UNIT_SYMBOL | TEST_RESULT |
| --- | --- | --- |
| Cc1ccccc1NC(=O)Nc1ccc(CC(=O)N[C@@H](CCCCNC(=O)/C=C/c2cccnc2)C(=O)N[C@@H](CCCC(=O)O)C(=O)N[C@H](C(N)=O)C(C)C)cc1 [15A] | nM | 0.2 |
| Cc1ccccc1NC(=O)Nc1ccc(C(C)C(=O)N[C@@H](CCCCNC(=O)/C=C/c2cccnc2)C(=O)N[C@@H](CCCC(=O)O)C(=O)N[C@H](Cc2ccccc2)C(N)=O)cc1 (stereo partly drawn) | nM | 8.9 |
| Cc1ccccc1NC(=O)Nc1ccc(C(C)C(=O)N[C@@H](CCCCNC(=O)/C=C/c2cccnc2)C(=O)N[C@@H](CCCC(=O)O)C(=O)NC2(C(N)=O)CCCCC2)cc1 (stereo partly drawn) | nM | 9.5 |
| Cc1ccccc1NC(=O)Nc1ccc(CC(=O)N[C@@H](CCCCNC(=O)/C=C/c2cccnc2)C(=O)N[C@@H](CCCC(=O)O)C(=O)N[C@@H](C(N)=O)C(C)C)cc1 [16A] | nM | 0.2 |
| Cc1ccccc1NC(=O)Nc1ccc(CC(=O)N[C@@H](CCCCNC(=O)/C=C/c2cccnc2)C(=O)N[C@@H](CCCC(=O)O)C(=O)N[C@H](Cc2ccccc2)C(=O)O)cc1 [12A] | nM | 0.4 |
| Cc1ccccc1NC(=O)Nc1ccc(CC(=O)N[C@@H](CCCCNC(=O)/C=C/c2cccnc2)C(=O)N[C@@H](CCCC(=O)O)C(=O)N[C@H](Cc2ccccc2)C(N)=O)cc1 | nM | 0.022 |
